# measurementTarget: Cytochrome P450 1A2 (Homo sapiens)
# procedureText: Cytochrome P450 Family 1 Subfamily A Member 2 (CYP1A2) small molecule antagonists: luciferase reporter qHTS assay (AID 1671199); note: nearly all actives have a fitted effect of over 50% in size
# conditions: P450-Glo CYP1A2 enzyme, luciferin luminescence, 1 h; series mostly up to 53 µM
Inconclusive results are not listed. The source made the active and inactive calls. Calls come from the whole dose curve; as a rule, active = well fitted inhibition curve with a large enough effect in the repeat runs; inconclusive = weak or mixed curves; inactive = no such curve, though single readings can be large or run the other way.
# output must be one of active, inactive

- compound: "NC(N)=NC(=O)Cc1c(Cl)cccc1Cl"
  classification: "inactive"
- compound: "c1cc(C(c2ccc(OCC3CO3)cc2)C(c2ccc(OCC3CO3)cc2)c2ccc(OCC3CO3)cc2)ccc1OCC1CO1 (centres undefined)"
  classification: "inactive"
- compound: "CCN(CC)C(=O)Nc1ccc(OCC(O)CNC(C)(C)C)c(C(C)=O)c1 (centres undefined)"
  classification: "inactive"

Which result was noted for this compound in the test: CC(=O)CC(=O)Nc1ccc2[nH]c(=O)[nH]c2c1
active

Which result was noted for this compound in the test: CC1COC(=O)O1 (centres undefined)
inactive

Which result was noted for this compound in the test: Cc1occc(=O)c1OC(=O)C(C)C
inactive

Which result was noted for this compound in the test: Cc1ccc(-c2cc(C(F)(F)F)nn2-c2ccc(S(N)(=O)=O)cc2)cc1
inactive

###

# procedureText: qHTS assay to identify small molecule antagonists of the glucocorticoid receptor (GR) signaling pathway - cell viability counter screen (AID 720693); note: nearly all actives have a fitted effect of over 55% in size
# conditions: GR-bla HeLa viability, CellTiter-Glo luminescence, 18 h, with 5 nM dexamethasone present; series mostly up to 58.5 µM
Records with an inconclusive call do not appear. The source made the active and inactive calls. The call rests on the fitted dose curve; in most records, active means well fitted cell-killing curve with a large enough effect in the repeat runs; inconclusive means weak or mixed curves, or effect the other way; inactive means no such curve, though single readings can be large or run the other way.
# output must be one of active, inactive

- compound: "[Cl][In]([Cl])[Cl]"
  classification: "inactive"
- compound: "Cc1scc2c1N(C(=O)CN1CCN(C)CC1)c1ccccc1NC2=O"
  classification: "inactive"
- compound: "NCCCCCC(=O)O"
  classification: "inactive"
- compound: "OCCN1CCNCC1"
  classification: "inactive"
- compound: "CCCCCCC(O)CCCCCCCCCCC(=O)O (stereo not given)"
  classification: "inactive"

Which result was noted for this compound in the test: CCOC(=O)C(C)C(C)=O (stereo not given)
inactive

Which result was noted for this compound in the test: NC(=Nc1ccccc1)Nc1ccccc1
inactive

###

# measurementTarget: Cytochrome P450 2C19 (Homo sapiens)
# procedureText: Cytochrome P450 Family 2 Subfamily C Member 19 (CYP2C19) small molecule antagonists: luciferase reporter qHTS assay (AID 1671197); note: nearly all actives have a fitted effect of over 65% in size
# conditions: P450-Glo CYP2C19 enzyme, luciferin luminescence, 1 h; series mostly up to 115 µM
Inconclusive results are not listed. Calls of active or inactive are those of the source. Calls follow the shape of the dose curve; as a rule, active = well fitted inhibition curve with a large enough effect in the repeat runs; inconclusive = weak or mixed curves; inactive = no such curve, though single readings can be large or run the other way.
# output must be one of Yes = active, No = inactive

- molecule: "CC(C)CCOC(=O)c1ccc(N(C)C)cc1"
  measurementTarget: "Cytochrome P450 2C19 (Homo sapiens)"
  classification: "Yes"
- molecule: "CC1COc2c(N3CCN(C)CC3)c(F)cc3c(=O)c(C(=O)O)cn1c23 (stereo unspecified)"
  measurementTarget: "Cytochrome P450 2C19 (Homo sapiens)"
  classification: "No"

Continue with the molecule presented below.
Which result was noted for this molecule in the test: Cc1scc2c1N(C(=O)CN1CCN(C)CC1)c1ccccc1NC2=O
No

###

# procedureText: qHTS RealTime-Glo MT Cell Viability Assay in HEK293 cells - 16 hour (AID 1224872); note: top concentration of the series differs between compounds; nearly all actives have a fitted effect of over 50% in size
# conditions: RealTime-Glo luminescence; series mostly up to 76.8 µM
Records with an inconclusive call do not appear. The source made the active and inactive calls. Calls follow the shape of the dose curve; as a rule, active = well fitted cell-killing curve with a large enough effect in the repeat runs; inconclusive = weak or mixed curves, or effect the other way; inactive = flat fitted curve, though single readings scatter.
# output must be one of yes (1) = active, no (0) = inactive

Which result was noted for this molecule in the test: CCCCCCC(O)CCCCCCCCCCC(=O)O (stereo not given)
no (0)

Which result was noted for this molecule in the test: CCOC(=O)C(C)C(C)=O (stereo not given)
no (0)

Which result was noted for this molecule in the test: CCCC(=O)c1ccccc1
no (0)

Which result was noted for this molecule in the test: O=C1OC2(c3ccc(O)cc3Oc3cc(O)ccc32)c2ccccc21
no (0)
